# System: MS2 coat protein
# testProtocol: apparent KD of MS2 coat protein; designed switch direction (-1 OFF switch, 1 ON switch): -1; higher = weaker reporter binding
# cond: input ligand: none
Would you mind labelling by apparent KD of MS2 coat protein? At or over 40 nM is Yes, under is No.

- biopolymerSequence: "AUCGUGCAGCAAAGCUGUACGAGUACAUGAGGAUCACCCAUGUAGGAUAUGGUACGCUUUGCGUGCUAGAAGGAUAUGUGUAGG [Mat - Exclusion NG 3 - Mod of JL - D83] (Eterna round: R96, puzzle: Exclusion NG 3)"
  assignedCategory: "No"
- biopolymerSequence: "GUCGUACAUGAGGAUCACCCAUGUGAGGAUAUGGGCGGCGCCGCAAAAGCGGCGCCGCCCAGAAGGCGCAUGAU [Malcxlusion 6 - Jieux - Exclusion 1] (Eterna round: R97, puzzle: Exclusion 1)"
  assignedCategory: "Yes"
- biopolymerSequence: "UAAAAGCUAGGAUAUAGAGACAGAAACUUGAGGAUCACCCAAGUGAGUCAAGCUAUGUCGCUAGAAGGAGCGAAAA [Qubetizaa] (Eterna round: R97, puzzle: Exclusion 5)"
  assignedCategory: "No"
- biopolymerSequence: "UGCCAGAAAGGAUAUACAGCCCGGGCGUUCCUGCGAUAUAUACAUGAGGAUCACCCAUGUAGAAGGUUCGGCGG [EX2 C.12] (Eterna round: R97, puzzle: Exclusion 2)"
  assignedCategory: "No"

Does apparent KD of MS2 coat protein meet or surpass 40 nM for CCCAUGUCAGGAUAUUAGAUACUGCCUCAAAACAAAGGCAUUGAGAAGGGACAUGAGGAUCACCCAUGUAAAAC [Leissobima] (Eterna round: R97, puzzle: Exclusion 4) ? Yes

Does apparent KD of MS2 coat protein meet or surpass 40 nM for GUUAUGCAGCAGGAUAUCGAUCCGCGGUAUGAUCGAGAAGGGCUGACAUGAGGAUCACCCAUGUGCGUCCUAGG [jl-ex6-4.46 ViennaUCT mod] (Eterna round: R97, puzzle: Exclusion 6) ? No

Does apparent KD of MS2 coat protein meet or surpass 40 nM for GUUGUUUAUGUAGGAUAUGCAAGGCGAACCUAAGCAGAAGGACAUGAGGAUCACCCAUGUAUUGCGGUCUGCGUUCAGAUCGCU [salish99_ExNG1_r4_014] (Eterna round: R96, puzzle: Exclusion NG 1) ? No

Does apparent KD of MS2 coat protein meet or surpass 40 nM for UAUUAGCAAGCGAGAUCCCACAUGAGGAUCACCCAUGUAAGCAUCCAGAAUUACUGGGUGCAAAAGCUCGUCUUAUA [Winner reversed engineered 5] (Eterna round: R97, puzzle: Sensor, turn-off variant 1) ? No

Does apparent KD of MS2 coat protein meet or surpass 40 nM for CUUGUUUAUGUAGGAUAUGCCUGGCGUGCCUUUGCAGAAGGACAUGAGGAUCACCCAUGUAACAUGAGGAUCACCCAUGUCGCA [salish99_ExNG1_r04_103] (Eterna round: R96, puzzle: Exclusion NG 1) ? Yes

###

# System: K4 kissing-loop RNA reporter;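 note: bound reporter read as fluorescence of individual clusters on recovered sequencing chips by microscopy, with normalized cluster intensities fitted with a binding model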
# testProtocol: apparent KD of K4 kissing-loop reporter; higher = weaker reporter binding
# cond: Eterna round: R107; input ligand: theophylline 20 uM
attributeMeasured: apparent KD of K4 kissing-loop reporter
Answer with the figure and its unit, nothing else.

// below: answered sequences
- biopolymerSequence: "GCCUGUGCACGAAGGAGCGCCGUGACAGGUUACUGCCUUGGGCAGUGAUGUUGCUCAAUCUGGCAGGUAGGUCGCGUGCACAGGC"
  experimentalSystem: "K4 kissing-loop RNA reporter"
  apparent KD of K4 kissing-loop reporter: "138 nM"
- biopolymerSequence: "CGUGAGGACCUGAGGUGAUGUAUAGUAUCGCGAGGACCGGUACGGCCGCCACUCGUGAAGAGAAAGGAGUGAUGUUCCGUAAGGG"
  experimentalSystem: "K4 kissing-loop RNA reporter"
  apparent KD of K4 kissing-loop reporter: "677 nM"
- biopolymerSequence: "GGCGGCCGCGCGAAAGCGCGGCCGGCCGAUACCAGCGCGACGGCGCGCCCUUGGCAGCGGCGCCGAGUGAUGUUCGGCCUGCCGU [#2 Same State - Theophylline A Attempt #13 (HarryS)]"
  experimentalSystem: "K4 kissing-loop RNA reporter"
  apparent KD of K4 kissing-loop reporter: "145 nM"

Given the sequence UGUACCGAGUCAGGAUAUGGCGUCGAAAGACGAAACCAGUGAUGUUGGAAUCGAUCGAAAGAUCGUCCAGAAGGGACUUGGUACU [FmnBS 21 #SwitchBubble #StaticStem #DoubleMagnetSystem] and test system K4 kissing-loop RNA reporter, the measured apparent KD of K4 kissing-loop reporter is 349 nM

Given the sequence GGAUGGUAGGCGGCCGCCACUAAAAGUGAACACAUACAAGCCAGUGAUGUUGGUAUGAUGGACUAUAGGACCGGGCCUAGAUAGA [Exclusion - Tryptophan B (Freestyle 6)] and test system K4 kissing-loop RNA reporter, the measured apparent KD of K4 kissing-loop reporter is 454 nM

Given the sequence AUUUAGACGAGUGAUGUUCGUGUUAUUACAGAGGAUAUGCGUAAUUGCAGAAGGCUGUAUUUAUAUAUGUUAUGUAAUUUUAAAA [JR_ExcFMNA_Sub007] and test system K4 kissing-loop RNA reporter, the measured apparent KD of K4 kissing-loop reporter is 99.4 nM

Given the sequence ACGCUGGUGAAUAACACUAGCGAAAAUUCGCGAGGACCGGUACGGCCGCCACUCGCUAACUGCGAGUGAUGUUCGAUAAUAAAAU [Mat - Mod of OpenEnded 3 - D8] and test system K4 kissing-loop RNA reporter, the measured apparent KD of K4 kissing-loop reporter is 169 nM

###

# System: MS2 coat protein
# testProtocol: apparent KD of MS2 coat protein; designed switch direction (-1 OFF switch, 1 ON switch): -1; higher = weaker reporter binding
# cond: Eterna round: R95; input ligand: none
Would you mind labelling by apparent KD of MS2 coat protein? At or over 40 nM is YES, under is NO.

- biopolymerSequence: "GUCCUCAUGGCGCCUAAACACAUGAGGAUCACCCAUGUACAGGCUUUUUGCCGUCUUAUAAUAAAACCGAGGAUGCG [Reanaor] (puzzle: Sensor v3, turn-off variant 1)"
  assignedCategory: "YES"
- biopolymerSequence: "AAAAGGACAGGAUAUUCGACUCGCAACAUGAGGAUCACCCAUGUGGUCGUCCAGUCGCUCGAAGAAGGGUUAAAAC [Cegeesbe] (puzzle: Exclusion 5)"
  assignedCategory: "NO"
- biopolymerSequence: "AGUACUAACACGGCAGUGUUAGUACAAUAAGCUUGUGAAACAUGAGGAUCACCCAUGUCCUCAUAAGCUCGUCUUAU [salish99_TOv2_r3_065] (puzzle: Sensor v3, turn-off variant 2)"
  assignedCategory: "NO"
- biopolymerSequence: "UUUAAUUUUUUUUUUUUACAAGCUUUUUGCUCGUCUUAUACAUGAGGAUCACCCAUGUAGGUGAAAAGUAAAUUAUC [JMF 45] (puzzle: Sensor v3, turn-off variant 2)"
  assignedCategory: "NO"
- biopolymerSequence: "CUAGUCCGAGGAUAUAUUAAGUGAUACAUGAGGAUCACCCAUGUAAUUUAAUGGAAAUAAAUAGAAGGCGGACUAG [Mat - Exclusion 5 - JL mod - D52] (puzzle: Exclusion 5)"
  assignedCategory: "YES"

Does apparent KD of MS2 coat protein meet or surpass 40 nM for AGUACUAACACGCUAGUGUUAGUACAAUAAGCUUGUGAAACAUGAGGAUCACCCAUGUCCUCAUAAGCUCGUCUUAU [salish99_TOv2_r3_058] (puzzle: Sensor v3, turn-off variant 2) ? NO

Does apparent KD of MS2 coat protein meet or surpass 40 nM for GGUUGGCGAGGAUAUACAUGAGGAUCACCCAUGUGAGAGAAAAAAGUGAGGAAGACAAGUAGAAGGCGCUGACG [salish99_ex3_r3_035] (puzzle: Exclusion 3) ? YES

Does apparent KD of MS2 coat protein meet or surpass 40 nM for GAUAAGGUAGGAUAUACGAAUAAAUAGGGUAGAAUAAUAACACAUGAGGAUCACCCAUGUAGAAGGACCAAUAG [Mat - Exclusion 2 - Mod of my Tesla design - D26] (puzzle: Exclusion 2) ? NO

Does apparent KD of MS2 coat protein meet or surpass 40 nM for CAUUCGCAAGGAUAUUAUUGCAGUGACAUGAGGAUCACCCAUGUGUUCGUCAUGCAUCGAUGAGAAGGUGCAAGAC [Orater] (puzzle: Exclusion 5) ? YES

Does apparent KD of MS2 coat protein meet or surpass 40 nM for GGUUGGCGAGGAUAUACAUGAGGAUCACCCAUGUGAGAGAAAGAAGUGAGAACGAAAAGUAGAAGGCGCUGACG [salish99_ex3_r3_058] (puzzle: Exclusion 3) ? YES

Does apparent KD of MS2 coat protein meet or surpass 40 nM for AUAAACGCAGGAUAUACAUGAGGAUCACCCAUGUAAAUUUUAAAAUAAAUAAAUAGAUGUAGAAGGGCGAAAUA [Lollin - Gamma 1] (puzzle: Exclusion 3) ? NO

Does apparent KD of MS2 coat protein meet or surpass 40 nM for CAGUACUGAGGAUAUACAUGAGGAUCACCCAUGUGUCCCUGCUAGGAAACUAGCAAAAGUAGAAGGCAGUACUG [Fiskers Ex 3 828 mod 3] (puzzle: Exclusion 3) ? NO

Does apparent KD of MS2 coat protein meet or surpass 40 nM for GGUUGGCGAGGAUAUACAUGAGGAUCACCCAUGUGAGAGAGAAAAGUGAGGAAGAAAAGUAGAAGGCGCUGACG [salish99_ex3_r3_003] (puzzle: Exclusion 3) ? NO

Does apparent KD of MS2 coat protein meet or surpass 40 nM for AGUACUAACACGAGAGUGUUAGUACUAUAAGCUUGUGUUACAUGAGGAUCACCCAUGUCCUCAUAAGCUCGUCUUAG [Mat - Sensor v3 - Turn-off var 2 - D67] (puzzle: Sensor v3, turn-off variant 2) ? YES

Does apparent KD of MS2 coat protein meet or surpass 40 nM for CAUACUCAAGUGAGGAUAUUGUCUCGGAUACGAAACAAGAAGGCACAUGAGGAUCACCCAUGUAGAGAGUAAAG [EX-4 Malc #30] (puzzle: Brourd's mod of Exclusion 4) ? NO

Does apparent KD of MS2 coat protein meet or surpass 40 nM for AAGUACUACAAGCUUUGGGACAUGAGGAUCACCCAUGUUCGUCUUAUUGAUCUAGGUACGCUGACGUACCUAGAUCU [Mat - Sensor v3 - turn-off var 1 - JL Mod - D8] (puzzle: Sensor v3, turn-off variant 1) ? NO

Does apparent KD of MS2 coat protein meet or surpass 40 nM for UUAUAUAGUGUGAGGAUAUGCUGGUCCUUGGAUCAGCAGAAGGCACAUGAGGAUCACCCAUGUAGUUAAUAAUA [Mat - Exclusion 4 - JL Mod - D16] (puzzle: Brourd's mod of Exclusion 4) ? YES

Does apparent KD of MS2 coat protein meet or surpass 40 nM for AAUAGGACAGGAUAUCCGGAGUCGAACAUGAGGAUCACCCAUGUGAUGAGGAUGUUCGCUGGAGAAGGGUCUGGCU [Atisdiis] (puzzle: Exclusion 5) ? YES

Does apparent KD of MS2 coat protein meet or surpass 40 nM for GAAAAGGUAGGAUAUAUGAAAAAAAAGGGUAGAAAAAAAACACAUGAGGAUCACCCAUGUAGAAGGACCAAAAG [salish99_ex2_r3_056] (puzzle: Exclusion 2) ? NO

Does apparent KD of MS2 coat protein meet or surpass 40 nM for GGAAAACAUGAGGAUCACCCAUGUAAGGAUAUGCAAAAGGAUAUAGAAGGAAAAAUAAGCAGAAGGUACAAAGG [salish99-ex1_r3_097] (puzzle: Exclusion 1) ? YES
